Origin of measurements: ChEMBL document CHEMBL1140404

- MEASUREMENT_DESCRIPTION: Oral bioavailability in rat
- Format: ADME, organism-based
- EXPERIMENTAL_CONDITIONS: in vivo
READOUT_TYPE: bioavailability

// bioavailability value for `Brc1ccc(-c2c[nH]nn2)cc1Br` : ~70%
